assay_notes: Clearance of 99m-Tc-IMP-192 in BALB/c mice
Assay type: in vivo
details: BALB/c, mouse; Lungs, 1 h
Where a SMILES comes first, the peptide text is derived from it. Side-chain parts run from the residue outwards. The star is where a group is joined. DTPA = O=C(O)CN(CCN(CC(=O)O)CC(=O)O)CCN(CC(=O)O)CC(=O)*; X1 = NC(=S)NN=CC(=O)*
outcome_measure: tissue uptake at 1 h (%ID/g)
Quick note: give the figure in %ID/g, leave out the unit.

Exercise: Bench note: what tissue uptake at 1 h did CC(=O)N[C@@H](CCCCNC(=O)CN(CCN(CCN(CC(=O)O)CC(=O)O)CC(=O)O)CC(=O)O)C(=O)N[C@@H](Cc1ccc(O)cc1)C(=O)N[C@@H](CCCCNC(=O)CN(CCN(CCN(CC(=O)O)CC(=O)O)CC(=O)O)CC(=O)O)C(=O)N[C@@H](CCCCNC(=O)[C@H](CS)NC(=O)C=NNC(N)=S)C(N)=O [IMP 192] (Ac-K(DTPA)YK(DTPA)K([Cys-X1])-NH2) show?
Key: 0.5
